Sourced from PubChem BioAssay

Assay: basal S. cerevisiae growth modulation, no modifier, primary screen, OD600, strain BY4716, 24 h, basal condition (AID 1173)
Details: OD600, 24 h, higher = more signal, called active from +8 up or from −8 down

{"columns": ["COMPOUND", "z-score"],
 "data": [
  ["O=C(CS)NCCCCCNC(=O)[C@@H]1C[C@@H]2C(=O)N[C@@H](Cc3ccccc3)C(=O)N2[C@@H]1c1ccc(O)cc1", -0.391],
  ["CO[C@@H]1COC(=O)CCC[C@@H](C)[C@H](OC)COC(=O)CCC[C@H]1C", 1.47],
  ["O=C1C[C@]2(c3ccc([N+](=O)[O-])cc3)C(=O)N(CCN3CCOCC3)c3cc(CO)ccc3[C@H]2N1CC12CC3CC(CC(C3)C1)C2", -0.0207],
  ["O=C1NC(=O)C2C1C=CC(C(O)Cc1ccccc1)N2Nc1ccccn1 (stereo not given)", 0.424],
  ["COC(=O)C1=C(C)[C@@H](O)[C@@H](C)[C@H](c2c(OC)c(OC)c(C)c(OC)c2OC)O1", -0.195],
  ["CCN1C(=O)[C@H]2[C@H]3[C@H](O)[C@H](O)CC(=NOCC=C(C)CCC=C(C)C)[C@H]3CC[C@H]2C1=O", -0.327],
  ["CC(C)(C)OC(=O)CC[C@]1(C(N)=O)COC(c2ccc(OCCCO)cc2)=N1", 0.0462],
  ["NC(=O)NCC#Cc1ccc2c(c1)[C@]1(C(=O)N2)[C@H](c2ccc(O)cc2)N2[C@H](c3ccccc3)[C@H](c3ccccc3)OC(=O)[C@H]2[C@@H]1C(=O)N1CCCCCCC1", 1.16],
  ["C[C@@H]1C=CCC(=O)OC[C@H](C)C(=O)OC[C@H]2O[C@H]1C=C[C@H]2O", -0.368],
  ["COCCCNC(=O)[C@]1(Cc2ccccc2)N=C(c2ccc(OCCCO)cc2)O[C@@H]1c1ccccc1", -0.706],
  ["CO[C@@H]1COC(=O)CC=C[C@@H](C)[C@@H]2C=C[C@@H](O)[C@@H](COC(=O)CC=C[C@H]1C)O2", -1.29],
  ["CCOC(=O)[C@H](CC(C)C)NC(=O)CCC1CC(OC(=O)NCCc2ccc(F)cc2)CC2(CCCC(COC(=O)NCc3ccccc3)O2)O1 (stereo not given in full)", -0.849],
  ["CCCCc1nc2c(c3c1C[C@H](C)OC3)CN(CCC(C)C)CC2", -2.07],
  ["CCCNC(=O)[C@@H]1c2ccccc2C(=O)N(Cc2ccccc2Cl)[C@H]1c1ccc(CO)cc1", -0.768],
  ["C=CCOC(=O)[C@H]1[C@@H]2C(=O)O[C@@H](c3ccccc3)[C@@H](c3ccccc3)N2[C@@H](c2ccc(OCCOC(=O)[C@H]3C[C@H]4C(=O)N[C@@H](Cc5ccccc5)C(=O)N4[C@H]3c3ccc(O)cc3)cc2)[C@]12C(=O)Nc1ccccc12", 1.32]
]}

----------
Assay: modulators of S6 phosphorylation in cells, primary screen, cell-based, A549, cytoblot, luminescence, serum-stimulated (AID 1158);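 note: serum-stimulated A549 lung adenocarcinoma cells; signal is phosphorylated S6 detected by cytoblot immunostaining with HRP secondary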
Conditions: A549 phospho-S6 cytoblot, 5 h, higher = more signal
MEASURED QUANTITY: z-score

{"columns": ["COMPOUND", "RECORDED VALUE"],
 "data": [
  ["Cc1ccc(S(=O)(=O)N[C@@H]2COC(=O)[C@H](C)COC(=O)CC=C[C@H]2C)cc1", -0.648],
  ["O[C@@H](Cc1ccccc1)[C@H]1C2C=CCCC(c3ccccc3)=C2CN1Cc1cccc(Cl)c1 (stereo not given in full)", 0.459],
  ["CO[C@@H]1COC(=O)CCC[C@@H](C)[C@H](OC)COC(=O)CCC[C@H]1C", -0.918],
  ["CC(=O)OC[C@H]1O[C@H](C#CCCCc2ccccc2)C=C[C@@H]1OC(C)=O", -0.0744],
  ["COCCOC(=O)N1C(=O)[C@@]2(c3cc(C#CC4(O)CCCCCC4)ccc31)[C@H](c1ccc(OCCO)cc1)N1[C@H](c3ccccc3)[C@H](c3ccccc3)OC(=O)[C@H]1[C@@H]2C(=O)NC[C@H](O)c1ccccc1", 1.47],
  ["CO[C@H]1COC(=O)[C@@H]2CCCN2C(=O)CC=C[C@@H](C)[C@H](OC)COC(=O)CC=C[C@@H]1C", 2.35],
  ["CC(C)N1CC=CC23O[C@@H]4C=CCCOC(=O)C4[C@H]2C(=O)N(CCCCCCO)[C@@H]3C1=O (stereo not given in full)", 0.342],
  ["CCCCC(=C=CC[C@H](O)c1ccccc1OCCO)C[C@H](O)COCc1ccccc1", -0.424],
  ["CCN1C(=O)[C@H]2[C@H]3[C@H](O)[C@H](O)CC(=NOCc4ccccc4)[C@@H]3CC[C@H]2C1=O", 2.27],
  ["COC(=O)[C@@H]1CC[C@H](C)[C@@H](c2ccc(C)cc2)N1C(=O)c1ccc(C=NOC(C)CN2CCCCc3nc(C)c(C)cc32)cc1 (stereo not given in full)", -0.122],
  ["O=C1C2=CC[C@H]3C(=O)N(Cc4ccc5c(c4)OCO5)C(=O)[C@H]3[C@H]2[C@H](O)[C@@H]2O[C@H]12", 0.116],
  ["CCOC(=O)CCN1C(=O)[C@H]2[C@H]3[C@H](O)[C@H](O)CC(=O)[C@H]3CC[C@H]2C1=O", 1.11],
  ["CCOC(=O)CCN1C(=O)[C@H]2[C@H]3[C@H](O)[C@H](O)CC(=NNC(=O)OCc4ccc(OC)cc4)[C@@H]3CC[C@H]2C1=O", -0.587],
  ["COCCCNC(=O)[C@]1(Cc2ccccc2)N=C(c2ccc(OCCCO)cc2)O[C@@H]1c1ccccc1", -0.612],
  ["CC(=O)OC[C@H]1O[C@@H](ON=C(C)CCN2CCc3nc(-c4ccccc4)c(-c4ccccc4)cc3C2)[C@H](OC(C)=O)[C@@H](OC(C)=O)[C@@H]1OC(C)=O", -0.225]
]}

----------
Assay: small-molecule microarray binders of probe aDKK1, primary screen, biochemical, biotinylated probe, 635/667 nm fluorescence (AID 1099);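 note: score merges 667nm spot fluorescence with signal to noise across triplicate slides; reference of the scale not given here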
Conditions: higher = more signal
MEASURED QUANTITY: composite z-score

{"columns": ["COMPOUND", "RECORDED VALUE"],
 "data": [
  ["CCOC(=O)C1=CCC(c2cc3ccccc3[nH]2)NC1 (stereo not drawn)", 1.1],
  ["COC(=O)CC1OC1[C@H](C)[C@@H](OC)C(C)C (stereo partly drawn)", -0.0977],
  ["CC(=O)O[C@H]1C2=C(C(=O)[C@@H]3O[C@@H]31)[C@H]1C(C)O[C@@H]2[C@@]23C(=O)[C@@H]4O[C@@H]4[C@@H](O)C2=CO[C@H](C)[C@@H]13 (stereo partly drawn)", -0.475],
  ["CCc1cc2c(nc1CC)CCN(CCC(C)=NOC(C)CN1CCCc3nc(C)c(C)cc31)C2 (stereo not drawn)", 0.612],
  ["CC(C)(C)OC(=O)CC[C@]1(C(N)=O)COC(c2ccc(OCCCO)cc2)=N1", 1.59],
  ["CO[C@@H]1COC(=O)CCC[C@@H](C)[C@H](OC)COC(=O)CCC[C@H]1C", -0.224],
  ["O=C1[C@H]2[C@H]3[C@H](O)[C@H](O)CC(=NOCc4ccccc4)[C@H]3CC[C@H]2C(=O)N1C[C@@H]1CCCO1", 0.114],
  ["CC1CC/C=C\\[C@H]2OC34C=CCN(C(C)C)C(=O)[C@H]3N(CCCO)C(=O)[C@@H]4C2C(=O)O1 (stereo partly drawn)", -0.268]
]}

----------
Parameter z-score: see the listing below.
Target: NADPH oxidase 4 (Homo sapiens) (UniProt Q9NPH5)
Sequence (Q9NPH5 whole entry, looked up): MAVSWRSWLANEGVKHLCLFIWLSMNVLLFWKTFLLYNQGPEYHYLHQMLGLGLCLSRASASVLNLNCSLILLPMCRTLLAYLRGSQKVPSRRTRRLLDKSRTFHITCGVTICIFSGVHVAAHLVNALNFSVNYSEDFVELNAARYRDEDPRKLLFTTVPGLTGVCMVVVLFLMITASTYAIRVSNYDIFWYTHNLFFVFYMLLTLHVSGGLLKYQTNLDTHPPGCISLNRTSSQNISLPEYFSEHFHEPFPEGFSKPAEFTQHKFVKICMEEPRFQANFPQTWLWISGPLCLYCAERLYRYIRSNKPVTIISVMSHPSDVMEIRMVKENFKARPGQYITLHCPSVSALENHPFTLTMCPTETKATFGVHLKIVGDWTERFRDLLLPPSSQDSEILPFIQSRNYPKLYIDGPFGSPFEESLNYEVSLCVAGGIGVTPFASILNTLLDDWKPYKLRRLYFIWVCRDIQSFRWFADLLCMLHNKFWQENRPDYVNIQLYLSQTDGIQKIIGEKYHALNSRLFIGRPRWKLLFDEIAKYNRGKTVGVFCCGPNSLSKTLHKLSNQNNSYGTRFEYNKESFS
Test: NOX4-dependent H2O2 signal modulators, primary screen, NOX inhibitor project, cell-based, HEK293-NOX4, tetracycline-induced, Amplex Red fluorescence (AID 1160)
Conditions: 45 min, higher = more signal, called active from +8 up or from −8 down
The source made the active and inactive calls.
MEASURED QUANTITY: z-score

{"columns": ["COMPOUND", "RECORDED VALUE"],
 "data": [
  ["CC(C)NC(=O)[C@@H]1c2ccccc2C(=O)N(CC23CC4CC(CC(C4)C2)C3)[C@H]1c1ccc(CO)cc1", "0.318 (inactive)"],
  ["CCOC(=O)[C@H](CC(C)C)NC(=O)CCC1CC(OC(=O)NCCc2ccc(F)cc2)CC2(CCCC(COC(=O)NCc3ccccc3)O2)O1 (stereo partly specified)", "-0.797 (inactive)"],
  ["C[C@@H]1C=CCC(=O)OC[C@H](C)C(=O)OC[C@H]2O[C@H]1C=C[C@H]2O", "-2.12 (inactive)"],
  ["COc1ccc([Si](C)(C)[C@@H]2[C@@H](CCO)O[C@]3(C(=O)N(Cc4ccc(NC(C)=O)cc4)c4ccccc43)[C@H]2C)cc1", "-0.0308 (inactive)"],
  ["COC(=O)CC=C[C@H](C)[C@H](CO)NS(=O)(=O)c1ccc(C)cc1", "0.227 (inactive)"],
  ["COc1ccc(OC[C@H]2Cc3c(-c4ccccc4)nc4c(c3CO2)CN(CCOc2ccccc2)CC4)cc1", "-1.68 (inactive)"],
  ["CCN1C(=O)[C@H]2[C@H]3[C@H](O)[C@H](O)CC(=NOCc4ccccc4)[C@@H]3CC[C@H]2C1=O", "-0.0627 (inactive)"],
  ["COC(=O)[C@H](C)NC(=O)CCC1CC(OC(=O)NCc2cccc3ccccc23)CC2(CCCC(COC(=O)NCCc3ccc(Cl)cc3)O2)O1 (stereo partly specified)", "1.18 (inactive)"],
  ["O=C1C2=CC[C@H]3C(=O)N(Cc4ccc5c(c4)OCO5)C(=O)[C@H]3[C@H]2[C@H](O)[C@@H]2O[C@H]12", "-0.111 (inactive)"],
  ["CC(CCN1CCc2nc(-c3ccccc3)c(-c3ccccc3)cc2C1)=NO[C@@H](C)c1cn([C@H](CO)Cc2ccccc2)nn1", "-1.51 (inactive)"],
  ["[N-]=[N+]=NCc1ccccc1[C@@H]1OC(c2ccc(OCCCO)cc2)=N[C@]1(Cc1ccccc1)C(=O)N1CCOCC1", "-0.253 (inactive)"],
  ["N#Cc1ccc(NN2C(C(O)c3cc(C(F)(F)F)cc(C(F)(F)F)c3)C=CC3C(=O)N(c4ccccc4)C(=O)C32)cc1 (stereo unspecified)", "-3.23 (inactive)"],
  ["CCCNC(=O)OC[C@H]1O[C@H](CCON=C2[C@H]3CCn4c(=O)n(-c5ccccc5)c(=O)n4[C@H]3[C@H](O)[C@@H]3O[C@H]23)C=C[C@@H]1Oc1ccc(OC)cc1", "-0.373 (inactive)"],
  ["CC(CCN1CCc2nc(-c3ccccc3)c(-c3ccccc3)cc2C1)=NO[C@H](C)c1cn([C@@H]2COC[C@H]2O)nn1", "0.289 (inactive)"],
  ["C=CC[C@@H]1C=C[C@H](ON=C(C)CCN2CCc3nc(CC)c(CC)cc3C2)[C@@H](CO)O1", "0.492 (inactive)"],
  ["c1ccc(C2NCCc3c2[nH]c2ccccc32)cc1 (stereo unspecified)", "-0.561 (inactive)"],
  ["CO[C@@H]1COC(=O)CCC[C@@H](C)[C@H](OC)COC(=O)[C@H](Cc2ccccc2)NC(=O)CC=C[C@H]1C", "-0.255 (inactive)"],
  ["COCC1=C2[C@@H](CCc3ccccc3)OB(O)C[C@@H]2n2c(=O)n(-c3ccccc3)c(=O)n2C1", "-2.2 (inactive)"],
  ["CC(C)=C1C(=O)C(c2ccccc2)=C2CN3C(=O)N(CCc4ccccc4)C(=O)[C@]3(Cc3ccc(F)cc3)[C@H]21", "-1.03 (inactive)"],
  ["CCOC(=O)NN=C1C[C@@H](O)[C@@H](O)[C@@H]2[C@@H]3C(=O)N(C(C)(C)C)C(=O)[C@@H]3CC[C@@H]12", "1.05 (inactive)"],
  ["NCCCCCNC(=O)[C@@H]1C[C@@H]2C(=O)N3CCC[C@H]3C(=O)N2[C@@H]1c1cccc(OCCO)c1", "1.19 (inactive)"],
  ["CN1C(=O)C2C=CC(C(O)C(c3ccccc3)c3ccccc3)N(NC(=O)OC(C)(C)C)C2C1=O (stereo unspecified)", "-4.7 (inactive)"],
  ["CC(=O)OC[C@H]1O[C@@H](ON=C[C@@H](C)[C@H](OCc2ccccc2)C(C)C)[C@H](OC(C)=O)[C@@H](OC(C)=O)[C@@H]1OC(C)=O", "0.404 (inactive)"],
  ["Cc1cc2c(nc1C)CCCN2CC(O)CN1CCN(C)CC1 (stereo unspecified)", "-1.07 (inactive)"],
  ["CN(C)CCCNC(=O)[C@@H]1c2ccccc2C(=O)N(Cc2ccccc2)[C@H]1c1ccc(CO)cc1", "1.02 (inactive)"],
  ["COC(=O)[C@@]1(Cc2ccc(OC)cc2)[C@H]2c3cc(C(=O)N4CCCC4)n(Cc4cc(F)c(F)c(F)c4)c3C[C@H]2CN1C(=O)c1ccccc1", "-0.256 (inactive)"],
  ["O=C(CS)NCCCCCNC(=O)[C@@H]1C[C@@H]2C(=O)N[C@@H](Cc3ccccc3)C(=O)N2[C@@H]1c1ccc(O)cc1", "-0.142 (inactive)"],
  ["C=CC[C@@H]1C=C[C@H](ON=Cc2ccc(C(=O)N3[C@H](c4ccc(C)cc4)[C@@H](C)CC[C@H]3C(=O)OC)cc2)[C@@H](CO)O1", "0.569 (inactive)"],
  ["CCc1cc2c(nc1CC)CCN(CCC(C)=NOC[C@@H](O)COCc1ccco1)C2", "0.162 (inactive)"],
  ["CN1C(=O)C2C=CC(C(O)c3ccc(Br)cc3)N(N(c3ccccc3)c3ccccc3)C2C1=O (stereo unspecified)", "0.184 (inactive)"],
  ["C[C@@H]1CCC2C(=O)N(Cc3ccccc3)C[C@@H](O)CN2[C@H]1c1ccc(Br)cc1 (stereo partly specified)", "-0.146 (inactive)"]
]}
